target: DPP1 (Homo sapiens); experiment: DPP1 activity cell assay; details: read-out: DPP1 IC50, corrected for PPB; in vitro potency corrected for rat PPB
pIC50: −log10 of the molar value.

Input Smiles: N#Cc1ccc(-c2ccc(C[C@@H](C#N)NC(=O)[C@@H]3CCCCN3)cc2)cc1
pIC50: 6.85
